Where these numbers come from: patent US20260151383A1

Recorded IC50 for the following molecules
Target: hALDH1a2 (Homo sapiens, UniProt O94788)
Sequence (O94788 1-518): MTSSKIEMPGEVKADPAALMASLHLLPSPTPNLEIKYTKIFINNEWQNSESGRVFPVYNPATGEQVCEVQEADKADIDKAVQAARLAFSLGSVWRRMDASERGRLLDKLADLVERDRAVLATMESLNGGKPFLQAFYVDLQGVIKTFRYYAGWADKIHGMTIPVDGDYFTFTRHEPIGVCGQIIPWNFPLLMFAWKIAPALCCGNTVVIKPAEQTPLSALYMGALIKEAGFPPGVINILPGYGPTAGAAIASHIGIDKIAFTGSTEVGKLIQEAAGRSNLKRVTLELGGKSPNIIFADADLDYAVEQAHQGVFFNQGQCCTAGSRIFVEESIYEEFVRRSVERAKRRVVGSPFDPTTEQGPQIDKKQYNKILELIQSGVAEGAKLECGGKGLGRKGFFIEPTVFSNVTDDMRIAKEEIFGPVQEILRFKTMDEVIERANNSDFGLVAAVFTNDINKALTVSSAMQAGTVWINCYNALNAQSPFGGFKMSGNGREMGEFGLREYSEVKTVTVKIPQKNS
Experiment: Aldh1a2 enzyme inhibition assay (resorufin fluorescence), human enzyme
Settings: recombinant enzyme, 20° C., activity level classes

[[record]]
molecule = "Cc1cc(NC(=O)c2ccncc2-c2ccccc2)cc2c1NC(=O)CC2"
result = "100 to 250 nM"

[[record]]
molecule = "Cc1cc(NC(=O)c2ccccc2-c2cccc(F)c2)cc2c1NC(=O)CC2"
result = "1000 to 5000 nM"

[[record]]
molecule = "Cc1cc(NC(=O)c2cnsc2CC(F)(F)F)cc2c1NC(=O)CC2"
result = "< 100 nM"

[[record]]
molecule = "CCc1ncoc1C(=O)Nc1cc(C)c2c(c1)C1CC1C(=O)N2 (centres unmarked)"
result = "250 to 1000 nM"

[[record]]
molecule = "O=C1CCc2cc(NC(=O)c3scnc3-c3cccc(F)c3)c(F)cc2N1"
result = "1000 to 5000 nM"


Query :: Give the reported IC50 for Cc1ccccc1-c1cnccc1C(=O)Nc1cc(C)c2c(c1)CCC(=O)N2 (system: hALDH1a2 (Homo sapiens, UniProt O94788)).
Result :: > 5000 nM

Query :: Next molecule up: CCCc1ncsc1C(=O)Nc1cc(C)c2c(c1)CCC(=O)N2
Result :: 250 to 1000 nM

Query :: Now the same for Cc1cc(OCCN(C)Cc2cccc(F)c2)cc2c1NC(=O)CC2
Result :: 1000 to 5000 nM

----------
Molecular target: mALDH1a2 (Mus musculus, UniProt Q62148)
Sequence (Q62148 1-518): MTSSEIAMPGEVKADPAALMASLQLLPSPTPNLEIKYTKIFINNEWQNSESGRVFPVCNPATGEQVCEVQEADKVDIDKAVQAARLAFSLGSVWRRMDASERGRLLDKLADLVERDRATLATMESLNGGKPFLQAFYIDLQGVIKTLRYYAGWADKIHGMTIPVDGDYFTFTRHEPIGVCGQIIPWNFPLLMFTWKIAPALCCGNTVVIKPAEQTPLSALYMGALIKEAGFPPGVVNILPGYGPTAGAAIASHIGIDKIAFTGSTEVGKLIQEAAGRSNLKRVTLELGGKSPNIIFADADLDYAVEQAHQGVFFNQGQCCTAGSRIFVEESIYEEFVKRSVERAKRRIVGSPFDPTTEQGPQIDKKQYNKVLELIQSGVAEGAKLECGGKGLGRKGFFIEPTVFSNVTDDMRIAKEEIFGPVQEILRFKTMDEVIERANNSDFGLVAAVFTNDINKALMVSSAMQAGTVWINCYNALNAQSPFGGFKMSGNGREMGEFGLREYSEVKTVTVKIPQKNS
Test: Aldh1a2 enzyme inhibition assay (resorufin fluorescence), mouse enzyme
Details: recombinant enzyme, 20° C., activity level classes
pIC50: −log10 of the molar value.
readout_type: pIC50

A selection of reference data follows.
[[record]]
smiles_structure = "Cc1cc(NC(=O)c2scnc2CC(C)C)cc2c1NC(=O)CC2"
result = "5.30 to 6.00"

[[record]]
smiles_structure = "Cc1cc(NC(=O)c2scnc2-c2cccc(F)c2)cc2c1NC(=O)CC2"
result = "6.00 to 6.60"

[[record]]
smiles_structure = "Cc1cc(NC(=O)c2ocnc2CC(F)(F)F)cc2c1NC(=O)CC2"
result = "5.30 to 6.00"


Query :: Look up pIC50: CCc1sncc1C(=O)Nc1cc(C)c2c(c1)CCC(=O)N2
Result :: 6.00 to 6.60

Query :: For Cc1ccccc1-c1cnccc1C(=O)Nc1cc(C)c2c(c1)CCC(=O)N2 then?
Result :: < 5.30
